Source of measurements: patent US8933228B2

Measured log10(IC50) by item
- Test system: ICAM-1 expression in BEAS2B cells
- Assay Details: Poly I:C-induced ICAM-1 induction in BEAS2B cells
- Assay type: cell-based
- Conditions Used: Homo sapiens, BEAS-2B; BEAS2B cells, poly I:C 1 μg/mL, 18 hr; read-out: BEAS2B (polyIC) ICAM1 IC50
Values below are the log10 of the recorded IC50, with nM as the unit.

Illustrative cases are given below, each with its answer.
INSERT INTO measurements (compound, parameter_measured, reading) VALUES
  ('CC(C)(C)c1cc(NC(=O)Nc2ccc(Oc3ccnc4[nH]c(=O)cnc34)c3ccccc23)n(-c2ccc(S(C)(=O)=O)cc2)n1', 'log10(IC50)', 2.25),
  ('COc1ccc(-n2nc(C(C)(C)C)cc2NC(=O)Nc2ccc(Oc3ccnc4[nH]c(=O)n(C)c34)c3ccccc23)cn1', 'log10(IC50)', 1.08),
  ('CC(C)(C)c1cc(NC(=O)Nc2ccc(Oc3ccnc4[nH]c(=O)cnc34)c3ccccc23)n(-c2ccc(Cl)c(Cl)c2)n1', 'log10(IC50)', 1.00);

GET /value?item= COc1ccc(-n2nc(C(C)(C)C)cc2NC(=O)Nc2ccc(Oc3ccnc4[nH]c(=O)n(C)c34)c(Cl)c2Cl)cc1 &field=log10(IC50) returns 0.79

GET /value?item= COc1ccc(-n2nc(C(C)(C)C)cc2NC(=O)Nc2ccc(Oc3ccnc4[nH]c(=O)n(C(C)C)c34)c3ccccc23)cc1 &field=log10(IC50) returns 0.28

GET /value?item= CC(C)(C)c1cc(NC(=O)Nc2ccc(Oc3ccnc4[nH]c(=O)cnc34)c3ccccc23)n(-c2ccccc2)n1 &field=log10(IC50) returns 0.82

GET /value?item= Cc1ccc(-n2nc(C(C)(C)C)cc2NC(=O)Nc2ccc(Oc3ccnc4[nH]c(=O)c(C)nc34)c3ccccc23)cc1 &field=log10(IC50) returns -0.22

GET /value?item= CC(C)(C)c1cc(NC(=O)Nc2ccc(Oc3ccnc4[nH]c(=O)[nH]c34)c3ccccc23)n(-c2ccccc2)n1 &field=log10(IC50) returns 0.99

###

- Target Entity: cSrc enzyme (Homo sapiens (Human))
- Sequence (P12931 whole entry, looked up): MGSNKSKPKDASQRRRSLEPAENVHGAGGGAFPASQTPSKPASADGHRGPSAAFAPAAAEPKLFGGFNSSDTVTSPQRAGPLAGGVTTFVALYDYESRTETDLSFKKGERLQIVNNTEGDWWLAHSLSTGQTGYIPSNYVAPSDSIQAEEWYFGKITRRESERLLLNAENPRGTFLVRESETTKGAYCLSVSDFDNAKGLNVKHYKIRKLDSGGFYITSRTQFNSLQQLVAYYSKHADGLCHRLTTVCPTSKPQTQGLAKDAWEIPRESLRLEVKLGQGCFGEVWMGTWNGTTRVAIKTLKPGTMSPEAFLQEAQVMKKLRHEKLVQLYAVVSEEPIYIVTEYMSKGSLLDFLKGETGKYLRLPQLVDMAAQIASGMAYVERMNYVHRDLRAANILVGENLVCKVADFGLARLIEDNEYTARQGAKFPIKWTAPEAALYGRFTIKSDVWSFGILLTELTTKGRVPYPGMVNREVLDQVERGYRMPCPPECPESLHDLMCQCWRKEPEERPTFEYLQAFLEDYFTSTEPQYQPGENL
pIC50: −log10 of the molar value.
# label = Fulfilled if pIC50 >= 8 else Not fulfilled

INSERT INTO measurements (compound_string, classification) VALUES
  ('COc1ccc(-n2nc(C(C)(C)C)cc2NC(=O)Nc2ccc(Oc3ccnc4[nH]c(=O)n(C)c34)c(Cl)c2Cl)cc1', 'Fulfilled'),
  ('Cc1ccc(-n2nc(C3CC3)cc2NC(=O)Nc2ccc(Oc3ccnc4[nH]c(=O)cnc34)c3ccccc23)cc1', 'Not fulfilled'),
  ('Cc1ccc(-n2nc(C(C)(C)C)cc2NC(=O)Nc2ccc(Oc3ccnc4[nH]c(=O)n(C)c34)c3ccccc23)cc1', 'Fulfilled'),
  ('CC(C)(C)c1cc(NC(=O)Nc2ccc(Oc3ccnc4[nH]c(=O)cnc34)c3ccccc23)n(-c2ccccc2)n1', 'Fulfilled');

Then there is this compound:
Record COc1ccc(-n2nc(C(C)(C)C)cc2NC(=O)Nc2ccc(Oc3ccnc4[nH]c(=O)[nH]c34)c3ncccc23)cc1 ; criterion: pIC50 no lower than 8. Met?
Fulfilled

###

- Target Entity: p38 MAPK γ (MAPK12) (Homo sapiens (Human))
- Sequence (P53778 whole entry): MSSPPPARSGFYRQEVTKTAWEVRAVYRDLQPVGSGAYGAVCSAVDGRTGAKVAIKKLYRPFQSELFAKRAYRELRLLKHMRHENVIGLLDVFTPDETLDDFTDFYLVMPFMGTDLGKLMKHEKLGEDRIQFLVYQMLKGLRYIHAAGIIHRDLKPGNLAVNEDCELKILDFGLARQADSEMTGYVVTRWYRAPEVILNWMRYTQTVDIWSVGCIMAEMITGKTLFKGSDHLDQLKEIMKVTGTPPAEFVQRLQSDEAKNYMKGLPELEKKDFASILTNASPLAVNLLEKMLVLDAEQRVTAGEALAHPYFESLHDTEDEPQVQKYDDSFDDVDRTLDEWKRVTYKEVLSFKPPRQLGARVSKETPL
- Assay Details: Enzyme inhibition assay (FRET, Z-LYTE), p38 MAPK gamma
- Assay type: biochemical
- Conditions Used: read-out: Enzyme Profile: IC50 Values p38γ
Parameter Measured: pIC50
Note on units: pIC50 is unitless, being -log10 of a concentration expressed in mol/L.

Illustrative cases are given below, each with its answer.
INSERT INTO measurements (compound_string, parameter_measured, reading) VALUES
  ('Cc1ccc(-n2nc(C3(C)CC3)cc2NC(=O)Nc2ccc(Oc3ccnc4[nH]c(=O)cnc34)c3ccccc23)cc1', 'pIC50', 7.72),
  ('CC(C)(C)c1cc(NC(=O)Nc2ccc(Oc3ccnc4[nH]c(=O)cnc34)c3ccccc23)n(-c2ccc(S(C)(=O)=O)cc2)n1', 'pIC50', 7.33),
  ('Cc1nc2c(Oc3ccc(NC(=O)Nc4cc(C(C)(C)C)nn4-c4ccccc4)c4ccccc34)ccnc2[nH]c1=O', 'pIC50', 7.00),
  ('COc1ccc(-n2nc(C(C)(C)C)cc2NC(=O)Nc2ccc(Oc3ccnc4[nH]c(=O)n(C(C)C)c34)c3ccccc23)cc1', 'pIC50', 6.31),
  ('CC(C)(C)c1cc(NC(=O)Nc2ccc(Oc3ccnc4[nH]c(=O)[nH]c34)c3ccccc23)n(-c2ccccc2)n1', 'pIC50', 7.17);

Pending compound:
GET /value?item= CC(C)(C)c1cc(NC(=O)Nc2ccc(Oc3ccnc4[nH]c(=O)cnc34)c3ccccc23)n(-c2ccc(Cl)cc2)n1 &field=pIC50 returns 6.63

###

- Test system: TNFα release in d-U937 cells
- Assay Details: LPS-induced TNFα release in d-U937 cells
- Format: cell-based
- Conditions Used: Homo sapiens, dU937, LPS 0.1 μg/mL, 4 hr, relative to 10 μg/mL BIRB796, read-out: d-U937 (LPS) TNFα REC50
Parameter Measured: pEC50
Note on units: pEC50 is unitless, being -log10 of a concentration expressed in mol/L.

Illustrative cases are given below, each with its answer.
INSERT INTO measurements (compound_string, reading) VALUES
  ('CC(C)(C)c1cc(NC(=O)Nc2ccc(Oc3ccnc4[nH]c(=O)cnc34)c3ccccc23)n(-c2ccc(Cl)c(Cl)c2)n1', 8.26),
  ('Cc1ccc(-n2nc(C(C)(C)C)cc2NC(=O)Nc2ccc(Oc3ccnc4[nH]c(=O)cnc34)c3ccccc23)cc1', 8.96),
  ('Cc1ccc(-n2nc(C(C)(C)C)cc2NC(=O)Nc2ccc(Oc3ccnc4[nH]c(=O)[nH]c34)c3ccccc23)cc1', 9.70);

GET /value?item= CC(C)(C)c1cc(NC(=O)Nc2ccc(Oc3ccnc4[nH]c(=O)[nH]c34)c3ncccc23)n(-c2ccccc2)n1 &field=pEC50 returns 6.77

GET /value?item= Cc1ccc(-n2nc(C(C)(C)C)cc2NC(=O)Nc2ccc(Oc3ccnc4[nH]c(=O)n(C)c34)c3ccccc23)cc1 &field=pEC50 returns 8.96

GET /value?item= COc1ccc(-n2nc(C(C)(C)C)cc2NC(=O)Nc2ccc(OCc3ccnc4[nH]c(=O)cnc34)c3ccccc23)cc1 &field=pEC50 returns 7.52

GET /value?item= Cc1ccc(-n2nc(C(C)(C)C)cc2NC(=O)Nc2ccc(Oc3ccnc4[nH]c(=O)cnc34)c3ccccc23)s1 &field=pEC50 returns 8.15

###

- Tested on: TNFα release in d-U937 cells
- Assay Details: LPS-induced TNFα release in d-U937 cells
- Type: cell-based
- Conditions Used: Homo sapiens, dU937, LPS 0.1 μg/mL, 4 hr, relative to 10 μg/mL BIRB796, read-out: d-U937 (LPS) TNFα REC50
Parameter Measured: EC50 (nM)
Quick reminder: number only, in nM, skip the unit.

GET /value?item= COCC(=O)Nc1cc(COc2ccc(NC(=O)Nc3cc(C(C)(C)C)nn3-c3ccc(C)cc3)c3ccccc23)ccn1 [Ref. 1, reference compound] &field=EC50 returns 0.9

GET /value?item= Cc1ccc(-n2nc(C3CC3)cc2NC(=O)Nc2ccc(Oc3ccnc4[nH]c(=O)cnc34)c3ccccc23)cc1 &field=EC50 returns 40

GET /value?item= CCn1c(=O)[nH]c2nccc(Oc3ccc(NC(=O)Nc4cc(C(C)(C)C)nn4-c4ccc(OC)cc4)c4ccccc34)c21 &field=EC50 returns 0.7

GET /value?item= COc1ccc(-n2nc(C(C)(C)C)cc2NC(=O)Nc2ccc(Oc3ccnc4[nH]c(=O)cnc34)c(Cl)c2Cl)cc1 &field=EC50 returns 1.3

GET /value?item= COc1ccc(-n2nc(C(C)(C)C)cc2NC(=O)Nc2ccc(Oc3ccnc4[nH]c(=O)n(C)c34)c3ccccc23)cn1 &field=EC50 returns 1.3

GET /value?item= Cc1ccc(-n2nc(C(C)(C)C)cc2NC(=O)Nc2ccc(OCCN3CCOCC3)c3ccccc23)cc1 [BIRB 796, reference compound] &field=EC50 returns 4.8

###

Measured EC50 by item
- Test system: TNFα release in d-U937 cells
- Assay Details: LPS-induced TNFα release in d-U937 cells
- Type: cell-based
- Conditions Used: Homo sapiens, dU937, LPS 0.1 μg/mL, 4 hr, relative to 10 μg/mL BIRB796, read-out: d-U937 (LPS) TNFα REC50
Quick reminder: number only, in nM, skip the unit.

Illustrative cases are given below, each with its answer.
INSERT INTO results (compound_string, parameter_measured, reading) VALUES
  ('CNS(=O)(=O)Cc1ccc(-n2nc(C(C)(C)C)cc2NC(=O)Nc2ccc(Oc3ccnc4[nH]c(=O)cnc34)c3ccccc23)cc1', 'EC50', 1.9),
  ('Cc1ccc(-n2nc(C(C)(C)C)cc2NC(=O)Nc2ccc(Oc3ncnc4[nH]c(=O)[nH]c34)c3ccccc23)cc1', 'EC50', 33);

Pending molecule:
GET /value?item= COc1cc(-n2nc(C(C)(C)C)cc2NC(=O)Nc2ccc(Oc3ccnc4[nH]c(=O)cnc34)c3ccccc23)ccc1CO &field=EC50 returns 12
